In this section we review reported Increase in Urine (%) values for a set of compounds.
Tested on: Wistar rats
procedure text: diuretic effect
Assay type: in vivo
test conditions: 25 mg/kg oral, urine collected for 6 hours, relative to control
experimental endpoint: Increase in Urine (%)

>>> numeric_value("Cn1c(=O)c2[nH]cnc2n(C)c1=O [Aminophylline, reference compound]")
34
>>> numeric_value("CCCn1c(=O)c2[nH]c(C34CC5CC(CC3C5)C4)nc2n(CCC)c1=O")
315
>>> numeric_value("CCCn1c(=O)c2[nH]c([C@@H]3C[C@@H]4C=C[C@@H]3C4)nc2n(CCC)c1=O (relative stereo)")
87
>>> numeric_value("CCCn1c(=O)c2[nH]c([C@@H]3CC[C@H]4CCC[C@H]43)nc2n(CCC)c1=O (relative stereo)")
88
>>> numeric_value("CCCCn1c(=O)c2[nH]c(C34CC5CC(CC3C5)C4)nc2n(CCCC)c1=O")
123
>>> numeric_value("CCCn1c(=O)c2c(nc([C@H]3C[C@@H]4C=C[C@@H]3C4)n2C)n(CCC)c1=O (relative stereo)")
155
>>> numeric_value("CCCn1c(=O)c2nc(C34CC5CC(CC3C5)C4)[nH]c2n(CCC)c1=S")
115
>>> numeric_value("CCCn1c(=S)c2[nH]c(C34CC5CC(CC3C5)C4)nc2n(CCC)c1=O")
100
>>> numeric_value("CC(C)Cn1c(=O)n(C)c(=O)c2[nH]c(C34CC5CC(CC3C5)C4)nc21")
112
>>> numeric_value("CCCn1c(=S)c2[nH]c(C34CC5CC(CC3C5)C4)nc2n(CCC)c1=S")
99
>>> numeric_value("CCCn1c(=O)c2[nH]c([C@H]3C[C@@H]4C=C[C@@H]3C4)nc2n(CCC)c1=O (relative stereo)")
106
>>> numeric_value("CCCn1c(=O)c2[nH]c([C@H]3C[C@H]4CC[C@@H]3C4)nc2n(CCC)c1=O (relative stereo)")
154
>>> numeric_value("CCCn1c(=O)c2[nH]c([C@@H]3CC[C@H]4CCC[C@H]43)nc2n(CCC)c1=S (relative stereo)")
112
>>> numeric_value("CCCn1c(=O)c2[nH]c(C(C)Cc3csc(C)n3)nc2n(CCC)c1=O (centres unmarked)")
82

----------
system name: Adenosine A₁ Receptor (Cavia porcellus)
Construct: from tissue; host or cells: guinea pig cerebrum membrane preparation
procedure text: Adenosine A1 receptor binding (3H-CHA binding)
Set-up: species or system guinea pig
test conditions: A₂ Ki (rat corpus striatum) / A₁ Ki (guinea pig cerebrum)
experimental endpoint: Ratio of Ki Values [A₂/A₁]

>>> numeric_value("CCCn1c(=O)c2[nH]c(-c3ccc(S(=O)(=O)N(C)CCN(C)C)cc3)nc2n(CCC)c1=O [PD 115199, reference compound]")
0.14
>>> numeric_value("CCCn1c(=O)c2[nH]c([C@@H]3CC[C@H]4CCC[C@H]43)nc2n(CCC)c1=O (relative stereo) [Compound 5]")
86.8
>>> numeric_value("CCn1c(=O)c2[nH]c(C34CC5CC(CC3C5)C4)nc2n(CC)c1=O [Compound 28]")
132
>>> numeric_value("CCCn1c(=O)c2[nH]c([C@H]3CC[C@H]4CCC[C@H]43)nc2n(CCC)c1=O (relative stereo) [Compound 6]")
112
>>> numeric_value("CCCCn1c(=O)c2[nH]c(C34CC5CC(CC3C5)C4)nc2n(CCCC)c1=O [Compound 29]")
107
>>> numeric_value("CCCn1c(=O)c2[nH]c([C@H]3C[C@@H]4C=C[C@@H]3C4)nc2n(CCC)c1=O (relative stereo) [Compound 1]")
92.7
>>> numeric_value("CCCn1c(=O)c2[nH]c([C@H]3C[C@H]4CC[C@@H]3C4)nc2n(CCC)c1=O (relative stereo) [Compound 3]")
75.0

----------
System: male dd-strain mice
procedure text: acute toxicity test
Type: in vivo
test conditions: 300 mg/kg orally administered, male dd-strain mice, observed 7 days after administration
experimental endpoint: Minimum lethal dose (MLD)

>>> result("CCCn1c(=O)c2[nH]c(Cc3csc(N)n3)nc2n(CCC)c1=O [Compound 12]")
"300 mg/kg"
>>> result("CCCn1c(=O)c2[nH]c([C@@H]3CC[C@H]4CCC[C@H]43)nc2n(CCC)c1=S (relative stereo) [Compound 24]")
"more than 300 mg/kg"
>>> result("CCCn1c(=O)[nH]c(=O)c2[nH]c([C@@H]3CC[C@H]4CCC[C@H]43)nc21 (relative stereo) [Compound 23]")
"more than 300 mg/kg"
>>> result("CCCn1c(=O)c2c(nc(C34CC5CC(CC3C5)C4)n2C)n(CCC)c1=O [Compound 20]")
"more than 300 mg/kg"

----------
system name: A₂ receptor (Rattus norvegicus, UniProt P30543)
Construct: A precipitate was prepared from rat corpus striatum; from tissue; host or cells: rat corpus striatum membrane preparation
Sequence (P30543 whole entry): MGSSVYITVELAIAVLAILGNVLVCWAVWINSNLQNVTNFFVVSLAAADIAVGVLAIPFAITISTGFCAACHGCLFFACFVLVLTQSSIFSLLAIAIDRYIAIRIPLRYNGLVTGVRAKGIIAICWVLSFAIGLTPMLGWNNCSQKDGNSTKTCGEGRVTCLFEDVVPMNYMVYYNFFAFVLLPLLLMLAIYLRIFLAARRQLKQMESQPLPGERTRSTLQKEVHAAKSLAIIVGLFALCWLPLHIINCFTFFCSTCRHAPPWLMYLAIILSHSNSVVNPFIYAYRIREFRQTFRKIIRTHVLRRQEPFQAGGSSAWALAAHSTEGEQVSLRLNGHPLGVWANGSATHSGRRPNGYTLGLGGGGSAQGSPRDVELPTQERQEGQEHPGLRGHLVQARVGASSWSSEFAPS
procedure text: Adenosine A2 receptor binding (3H-NECA binding)
test conditions: read-out: A₂ Receptor Inhibition (%)
experimental endpoint: inhibition at 100 µM (%)

>>> numeric_value("CCCn1c(=O)c2[nH]c(C34CC5CC(CC(C5)C3)C4)nc2n(CCC)c1=O")
71
>>> numeric_value("CCCCn1c(=O)c2[nH]c(C34CC5CC(CC3C5)C4)nc2n(CCCC)c1=O")
78
>>> numeric_value("CCCn1c(=O)c2[nH]c(C34CC5CC(CC3C5)C4)nc2n(CCC)c1=O")
77

----------
system name: A₂ receptor (Rattus norvegicus, UniProt P30543)
Construct: A precipitate was prepared from rat corpus striatum; from tissue; host or cells: rat corpus striatum membrane preparation
procedure text: Adenosine A2 receptor binding (3H-NECA binding)
test conditions: read-out: A₂ Receptor Inhibition (%)
experimental endpoint: inhibition at 100 µM (%)

>>> numeric_value("CCCn1c(=O)c2[nH]c([C@@H]3CC[C@H]4CCC[C@H]43)nc2n(CCC)c1=O (relative stereo)")
99
>>> numeric_value("CCCn1c(=O)c2[nH]c(-c3ccc(S(=O)(=O)N(C)CCN(C)C)cc3)nc2n(CCC)c1=O [PD 115199, reference compound]")
98
>>> numeric_value("CCn1c(=O)c2[nH]c(C34CC5CC(CC3C5)C4)nc2n(CC)c1=O")
78
>>> numeric_value("CCCn1c(=O)c2[nH]c([C@H]3C[C@@H]4C=C[C@@H]3C4)nc2n(CCC)c1=O (relative stereo)")
97
>>> numeric_value("CCCn1c(=O)c2[nH]c([C@H]3C[C@H]4CC[C@@H]3C4)nc2n(CCC)c1=O (relative stereo)")
90
>>> numeric_value("Nc1nc2ccc(Cl)cc2c2nc(-c3ccco3)nn12 [CGS 15943, reference compound]")
97
>>> numeric_value("CCCn1c(=O)c2[nH]c([C@H]3CC[C@H]4CCC[C@H]43)nc2n(CCC)c1=O (relative stereo)")
85

----------
system name: Adenosine A₁ Receptor (Cavia porcellus, UniProt P47745)
Construct: from tissue; host or cells: guinea pig cerebrum membrane preparation
Sequence (P47745 whole entry): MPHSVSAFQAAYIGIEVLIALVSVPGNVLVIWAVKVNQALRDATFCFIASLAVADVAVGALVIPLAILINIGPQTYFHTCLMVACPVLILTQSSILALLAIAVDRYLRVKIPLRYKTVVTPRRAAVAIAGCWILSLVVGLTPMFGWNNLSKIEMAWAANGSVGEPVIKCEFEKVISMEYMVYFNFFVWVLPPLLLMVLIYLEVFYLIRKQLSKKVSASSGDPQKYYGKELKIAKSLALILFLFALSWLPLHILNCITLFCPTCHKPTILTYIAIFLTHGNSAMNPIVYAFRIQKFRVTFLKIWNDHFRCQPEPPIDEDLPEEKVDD
procedure text: Adenosine A1 receptor binding (3H-CHA binding)
Design: species or system guinea pig
test conditions: concentration of tested compound 10⁻⁴ M; ³H-CHA 1.1 nM, guinea pig cerebrum
In this section we review reported inhibition at 100 µM values for a set of molecules.
experimental endpoint: inhibition at 100 µM (%)

>>> numeric_value("CCCn1c(=O)c2[nH]c([C@H]3CC[C@H]4CCC[C@H]43)nc2n(CCC)c1=O (relative stereo) [Compound 6]")
101
>>> numeric_value("CCCn1c(=O)c2[nH]c(-c3ccc(S(=O)(=O)N(C)CCN(C)C)cc3)nc2n(CCC)c1=O [PD 115199, reference compound]")
100
>>> numeric_value("CCCn1c(=O)c2[nH]c([C@@H]3CC[C@H]4CCC[C@H]43)nc2n(CCC)c1=O (relative stereo) [Compound 5]")
99
>>> numeric_value("CCCn1c(=O)c2[nH]c(C34CC5CC(CC(C5)C3)C4)nc2n(CCC)c1=O [Compound 13, 8-(Adamantan-1-yl)-1,3-dipropylxanthine]")
100
>>> numeric_value("CCCCn1c(=O)c2[nH]c(C34CC5CC(CC3C5)C4)nc2n(CCCC)c1=O [Compound 29]")
100
>>> numeric_value("CCCn1c(=O)c2[nH]c([C@H]3C[C@H]4CC[C@@H]3C4)nc2n(CCC)c1=O (relative stereo) [Compound 3]")
100
>>> numeric_value("CCn1c(=O)c2[nH]c(C34CC5CC(CC3C5)C4)nc2n(CC)c1=O [Compound 28]")
101
>>> numeric_value("CCCn1c(=O)c2[nH]c([C@H]3C[C@@H]4C=C[C@@H]3C4)nc2n(CCC)c1=O (relative stereo) [Compound 1]")
99
>>> numeric_value("CCCn1c(=O)c2[nH]c(C34CC5CC(CC3C5)C4)nc2n(CCC)c1=O [Compound 14]")
101

This collection of values is drawn from patent EP0415456A2.
